The compounds listed here are annotated with their EC50.
Molecular target: Solute carrier family 12 member 5 (Homo sapiens, UniProt Q9H2X9)
Sequence (Q9H2X9 whole entry): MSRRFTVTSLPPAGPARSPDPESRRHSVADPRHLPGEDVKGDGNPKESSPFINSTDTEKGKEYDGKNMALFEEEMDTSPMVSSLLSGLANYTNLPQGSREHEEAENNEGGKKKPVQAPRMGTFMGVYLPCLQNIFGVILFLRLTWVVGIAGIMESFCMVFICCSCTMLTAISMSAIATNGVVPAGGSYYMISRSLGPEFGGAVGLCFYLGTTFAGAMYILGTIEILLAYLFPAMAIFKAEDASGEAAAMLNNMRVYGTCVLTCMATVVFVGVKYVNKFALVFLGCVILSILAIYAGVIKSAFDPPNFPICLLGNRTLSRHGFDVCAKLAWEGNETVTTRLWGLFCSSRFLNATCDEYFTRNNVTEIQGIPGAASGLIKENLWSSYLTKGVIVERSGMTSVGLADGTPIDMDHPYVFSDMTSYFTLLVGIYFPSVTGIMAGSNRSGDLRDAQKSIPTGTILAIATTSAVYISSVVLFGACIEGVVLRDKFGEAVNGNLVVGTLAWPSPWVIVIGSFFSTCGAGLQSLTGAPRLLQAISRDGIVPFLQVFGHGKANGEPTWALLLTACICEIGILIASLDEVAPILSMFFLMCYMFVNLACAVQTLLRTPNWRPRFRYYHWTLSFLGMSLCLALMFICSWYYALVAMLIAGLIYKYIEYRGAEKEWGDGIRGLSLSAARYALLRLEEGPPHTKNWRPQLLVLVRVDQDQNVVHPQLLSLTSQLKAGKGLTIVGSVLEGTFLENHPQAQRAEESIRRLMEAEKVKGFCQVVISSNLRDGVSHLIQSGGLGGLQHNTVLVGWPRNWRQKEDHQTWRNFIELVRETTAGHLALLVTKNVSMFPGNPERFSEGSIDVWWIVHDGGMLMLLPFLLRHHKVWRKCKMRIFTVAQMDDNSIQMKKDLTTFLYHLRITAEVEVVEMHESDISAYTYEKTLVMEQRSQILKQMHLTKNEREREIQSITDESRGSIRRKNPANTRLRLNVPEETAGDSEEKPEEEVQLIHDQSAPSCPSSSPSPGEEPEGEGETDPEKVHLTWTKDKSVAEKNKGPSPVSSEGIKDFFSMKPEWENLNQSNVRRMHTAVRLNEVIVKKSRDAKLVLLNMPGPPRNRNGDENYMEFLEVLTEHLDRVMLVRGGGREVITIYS
Test: concentration-response of KCC2 transport modulators – cell-based, HEK293 KCC2, FluoZin-2 fluorescence, dose response (AID 1736)
METRIC: EC50 (µM)

INSERT INTO results (compound, metric, recorded_result) VALUES
  ('CC1Cc2ccccc2N1C(=O)CN(C)S(=O)(=O)c1cccc2cccnc12 (stereo not given)', 'EC50', 17.5),
  ('O=C(O)CC/C(=C\c1ccc(N2CCOCC2)c([N+](=O)[O-])c1)c1nc2ccccc2s1', 'EC50', 12.2),
  ('COc1cc(C(=S)N2CCOCC2)ccc1OC(=O)Cc1ccc(F)cc1', 'EC50', 8.68),
  ('Cc1onc(C(=O)N2CCN(Cc3ccccc3)CC2)c1[N+](=O)[O-]', 'EC50', 6.9),
  ('Cc1ccc(C)c(C(=O)NC(C)CCc2ccccc2)c1 (stereo not given)', 'EC50', 7.74),
  ('Cn1nccc1C(=O)OCC(=O)Nc1nc(-c2ccccc2)cs1', 'EC50', 6.08),
  ('Cc1ccccc1-c1nc(CS(=O)(=O)CC(=O)NCc2ccccc2)c(C)o1', 'EC50', 110),
  ('CCOC(=O)c1sc(Nc2nc3c(OC)cccc3s2)nc1C', 'EC50', 23.4),
  ('Cc1ccc(Cn2c(SCC(=O)Nc3cc(C)on3)nc3ccccc3c2=O)cc1', 'EC50', 65.1),
  ('O=C(NCCCCc1ccccc1)C1CC(c2ccccc2[N+](=O)[O-])=NO1 (stereo not given)', 'EC50', 5.52);
